system: MALME-3M melanoma; assay: NCI-60 one-dose screen, 48 h; conditions: 10 µM unless noted
This is part of a sample that, as a whole, favours compounds with a hit. Of some 83,000 tested, about 20% had one in any assay. Calls of active or inactive are those of the source. How the source made its calls: active means growth percent below 10; inactive means the rest.
Classes to choose from: yes for active, no for inactive

Use the examples below as a reference point.
{"COMPOUND": "CC(C)CCSc1nc(-c2ccc(F)cc2)c(C#N)c(N2CCCCC2)n1", "CLASSIFICATION": "no"}
{"COMPOUND": "COc1cccc(/C(C)=N/NC(=O)CSc2nc3ccccc3c(=O)n2CCc2ccc(S(N)(=O)=O)cc2)c1", "CLASSIFICATION": "yes"}
{"COMPOUND": "O=C(NCCN1CCCC1)n1cc(-c2ccncc2)c(-c2cc(O)cc(Cl)c2)n1", "CLASSIFICATION": "yes"}
{"COMPOUND": "CCCCCCCCCCCCC1CCC(=O)O1 (stereo not given)", "CLASSIFICATION": "no"}
{"COMPOUND": "CCOC(=O)c1cnc(SCC)nc1SC#N", "CLASSIFICATION": "no"}

Recorded test call requested for `COc1ccc2[nH]cc(C3(c4c[nH]c5ccc(OC)cc45)C(=O)Nc4ccc(F)cc43)c2c1` no

Recorded test call requested for `COC(=O)c1ccc2c(c1)nc(-c1cc3ccccc3[nH]c1=O)n2-c1cc(C(C)(C)C)[nH]n1` no

Recorded test call requested for `COc1ccc(/C=C/c2nc(NCCCN(C)C)c3ccccc3n2)cc1` no

Recorded test call requested for `Cc1nn(-c2cccc(Cl)c2)c(C)c1N=Nc1ccc(Br)cc1` no

Recorded test call requested for `CCN(CC)CCCCCCCCNc1c2ccc(Cl)cc2nc2ccc(OC)cc12` yes
